These data points were gathered from paper PMC8192493.

Kindly state MIC for each of the entries shown.
- Test system: six MRSA clinical isolates
- Procedure details: MIC assays against MRSA clinical isolates
- Assay type: cell-based
- Assay conditions: Staphylococcus aureus, read-out: MIC against six MRSA clinical isolates

As a guide, the following entries are already answered.
1. Oc1c(Br)c(Cl)c(Br)c2nc3c(Cl)cc(Cl)cc3nc12    0.47 to 1.25 µM
2. Cc1cccc2nc3c(O)c(Br)c(Cl)c(Br)c3nc12    0.06 to 0.12 µM
3. Oc1c(Br)cc(Br)c2nc3ccccc3nc12    1.25 to 2.5 µM

Now look at this one.
Challenge: Report value only: MIC, six MRSA clinical isolates, CCSc1c(Br)c(O)c2nc3cccc(C)c3nc2c1Br
Response given: 0.31 to 0.63 µM
